This collection of values is drawn from patent US20260042850A1.

target: T1, human C-MET His tagged, monomeric (human, UniProt P08581 25-932); assay: SPR Biacore, IgG captured, monomeric C-MET-His analyte
T1 construct: also called monomeric human C-MET; biotinylated human C-MET-His
T1 sequence (P08581 25-932): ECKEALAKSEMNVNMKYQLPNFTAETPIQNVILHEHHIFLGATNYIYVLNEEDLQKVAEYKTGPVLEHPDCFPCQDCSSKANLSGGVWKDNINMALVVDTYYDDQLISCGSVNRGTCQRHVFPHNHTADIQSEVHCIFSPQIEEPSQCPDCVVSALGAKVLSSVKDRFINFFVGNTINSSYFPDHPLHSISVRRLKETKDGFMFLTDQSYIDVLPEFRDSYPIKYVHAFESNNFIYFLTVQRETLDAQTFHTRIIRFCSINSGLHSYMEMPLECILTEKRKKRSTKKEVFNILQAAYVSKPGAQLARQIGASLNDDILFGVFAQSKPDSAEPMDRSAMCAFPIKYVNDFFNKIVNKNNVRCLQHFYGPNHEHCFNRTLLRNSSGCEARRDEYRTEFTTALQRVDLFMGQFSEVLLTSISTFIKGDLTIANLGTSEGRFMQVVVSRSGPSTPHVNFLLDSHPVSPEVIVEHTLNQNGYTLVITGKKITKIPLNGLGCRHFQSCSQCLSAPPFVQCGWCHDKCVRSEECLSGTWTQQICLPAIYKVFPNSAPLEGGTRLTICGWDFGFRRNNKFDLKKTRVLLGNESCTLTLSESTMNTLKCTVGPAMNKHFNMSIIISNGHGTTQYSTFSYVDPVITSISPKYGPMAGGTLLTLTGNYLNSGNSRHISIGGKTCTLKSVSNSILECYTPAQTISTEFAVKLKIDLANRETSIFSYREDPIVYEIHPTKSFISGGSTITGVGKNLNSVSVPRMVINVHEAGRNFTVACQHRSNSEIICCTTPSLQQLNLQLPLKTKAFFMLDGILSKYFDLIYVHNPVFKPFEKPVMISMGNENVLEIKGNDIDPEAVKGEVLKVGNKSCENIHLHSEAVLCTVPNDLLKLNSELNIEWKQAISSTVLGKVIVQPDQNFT
readout.label: Kd
Remember to quote the unit after the number.

MH6 (antibody, IgG4, V domains shown) VH: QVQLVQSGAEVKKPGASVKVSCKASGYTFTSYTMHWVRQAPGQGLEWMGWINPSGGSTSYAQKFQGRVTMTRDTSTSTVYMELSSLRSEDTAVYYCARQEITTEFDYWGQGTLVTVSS VL: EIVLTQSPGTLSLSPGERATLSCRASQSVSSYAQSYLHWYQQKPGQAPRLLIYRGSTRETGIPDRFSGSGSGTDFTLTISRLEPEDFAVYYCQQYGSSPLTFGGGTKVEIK yielded Kd of 8.2 nM

New cases:
h224G11 (humanized 224G11) (antibody, human IgG4, V domains shown, also called Humanized h224G11; 224G11 IgG4(S228P)) VH: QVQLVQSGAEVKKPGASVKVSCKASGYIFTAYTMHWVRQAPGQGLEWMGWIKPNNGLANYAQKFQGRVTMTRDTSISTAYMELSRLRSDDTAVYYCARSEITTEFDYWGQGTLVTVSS VL: DIVMTQSPDSLAVSLGERATINCKSSESVDSYANSFLHWYQQKPGQPPKLLIYRASTRESGVPDRFSGSGSGTDFTLTISSLQAEDVAVYYCQQSKEDPLTFGGGTKVEIK yielded Kd of 0.47 nM
